Can you tell me IC50 for the items I'm about to list?
System: Poly/Mono-ADP Ribose in U2OS cells
Test: PAR in cell western assay (parylation) in U2OS cells
Assay type: cell-based
Settings: Homo sapiens; U2OS cells, 6 hrs, 2 mM H2O2; read-out: Parylation (U2OS)

# input What value of measured IC50 is listed for O=C(N[C@@H](C(=O)N1CCN(CC(=O)N2CCN(C(=O)c3cc(Cc4n[nH]c(=O)c5ccccc45)ccc3F)CC2)CC1)C1CCCCC1)c1cccc(C2CCCN(C(=O)C3CC3)C2)c1F (some centres unmarked) ?
# output 10 to 100 nM

# input What value of measured IC50 is listed for `O=C(N[C@@H](C(=O)N1CCN(CC23CCC(C(=O)N4CCN(C(=O)c5cc(Cc6n[nH]c(=O)c7ccccc67)ccc5F)CC4)(CC2)CO3)CC1)C1CCCCC1)c1cccc([C@@H]2CCCN(C(=O)CNC3CC3)C2)c1` ?
# output 10 to 100 nM

Where these numbers come from: patent US20250127907A1
